Overview of recorded Antifungal index (mycelial growth inhibition rate) for various compounds
# System: Pyrenophora graminea
# Test Details: Test 2 for antifungal effect, plate medium: P.g
# Assay type: cell-based
# Condition Info: 0.16 mg/L, PDA plate medium

Some compounds with recorded Antifungal index (mycelial growth inhibition rate):
Compound	Observed Value
CC1(CCl)CCC(Cc2ccc(Cl)cc2)C1(O)Cn1cncn1 (single isomer, unassigned) [Compound (1-1a)]	4 (Less than 90% but not less than 80%)
CC1(CCl)CCC(Cc2ccc(F)cc2)C1(O)Cn1cncn1 (single isomer, unassigned) [Compound (1-2b)]	5 (90% or greater)
CC1(CCl)CCC(Cc2ccc(Cl)cc2)C1(O)Cn1cncn1 (single isomer, unassigned) [Compound (1-1b)]	5 (90% or greater)

// CC1(CCl)CCC(Cc2ccc(F)cc2)C1(O)Cn1cncn1 (single isomer, unassigned) [Compound (1-2a)] : Antifungal index (mycelial growth inhibition rate) value = 4 (Less than 90% but not less than 80%)

* * *

# Tested on: Penicillium italicum
# Test Details: Test 2 for antifungal effect, plate medium: P.i
# Assay type: cell-based
# Condition Info: 0.16 mg/L, PDA plate medium
Observed Property: Antifungal index (mycelial growth inhibition rate)

Some compounds with recorded Antifungal index (mycelial growth inhibition rate):
Compound	Observed Value
CC1(CCl)CCC(Cc2ccc(F)cc2)C1(O)Cn1cncn1 (single isomer, unassigned) [Compound (1-2a)]	3 (Less than 80% but not less than 70%)
CC1(CCl)CCC(Cc2ccc(F)cc2)C1(O)Cn1cncn1 (single isomer, unassigned) [Compound (1-2b)]	5 (90% or greater)
CC1(CCl)CCC(Cc2ccc(Cl)cc2)C1(O)Cn1cncn1 (single isomer, unassigned) [Compound (1-1b)]	5 (90% or greater)

Please examine the following record next.
// CC1(CCl)CCC(Cc2ccc(Cl)cc2)C1(O)Cn1cncn1 (single isomer, unassigned) [Compound (1-1a)] : Antifungal index (mycelial growth inhibition rate) value = 4 (Less than 90% but not less than 80%)

* * *

# Test system: wheat
# Test Details: Growth inhibition (adverse effects) of seed treatment on wheat seeds
# Assay type: in vivo
# Condition Info: wheat, treatment amount 20 g ai/100 kg seeds, 20 days after sowing
Observed Property: Growth inhibition index

// CC1(CCl)CCC(Cc2ccc(Cl)cc2)C1(O)Cn1cncn1 (single isomer, unassigned) [Compound (1-1a)] : Growth inhibition index value = 0 (50% or more)

// CC1(CCl)CCC(Cc2ccc(F)cc2)C1(O)Cn1cncn1 (single isomer, unassigned) [Compound (1-2a)] : Growth inhibition index value = 0 (50% or more)

// CC1(CCl)CCC(Cc2ccc(Cl)cc2)C1(O)Cn1cncn1 (single isomer, unassigned) [Compound (1-1b)] : Growth inhibition index value = 4 (Less than 20% but 10% or more)

// CC1(CCl)CCC(Cc2ccc(F)cc2)C1(O)Cn1cncn1 (single isomer, unassigned) [Compound (1-2b)] : Growth inhibition index value = 4 (Less than 20% but 10% or more)

* * *

# Tested on: Botrytis cinerea
# Test Details: Test 1 for antifungal effect, plate medium: B.c
# Format: cell-based
# Condition Info: 0.16 mg/L, PDA plate medium
# Protocol: Compound (1-1a) or Compound (1-2a) was dissolved in dimethyl sulfoxide, and the resulting solution was added to a PDA medium (potato dextrose-agar medium) at about 60° C. The medium and the solution were mixed thoroughly in a conical flask, poured into a petri dish, and allowed to solidify. In this way, a plate medium containing Compound (1-1a) or Compound (1-2a) at a certain concentration was prepared. […]
Observed Property: Antifungal index (mycelial growth inhibition rate)

Some compounds with recorded Antifungal index (mycelial growth inhibition rate):
Compound	Observed Value
CC1(CCl)CCC(Cc2ccc(Cl)cc2)C1(O)Cn1cncn1 (single isomer, unassigned) [Compound (1-1b)]	1 (Less than 60%)
CC1(CCl)CCC(Cc2ccc(F)cc2)C1(O)Cn1cncn1 (single isomer, unassigned) [Compound (1-2b)]	1 (Less than 60%)
CC1(CCl)CCC(Cc2ccc(Cl)cc2)C1(O)Cn1cncn1 (single isomer, unassigned) [Compound (1-1a)]	3 (Less than 80% but not less than 70%)

Please examine the following record next.
// CC1(CCl)CCC(Cc2ccc(F)cc2)C1(O)Cn1cncn1 (single isomer, unassigned) [Compound (1-2a)] : Antifungal index (mycelial growth inhibition rate) value = 3 (Less than 80% but not less than 70%)
